- System: UO-31 renal
- protocolDetails: NCI tumour cell line growth inhibition, 48 h
Assign TGI to each entry below.

IN: Tell me measured TGI for C[n+]1c2ccccc2c2/c(=C\C#N)c3ccccc3n21 please.
OUT: 26.7 µM

IN: Return value of TGI for input COc1ccc(Cc2nn(C3OC(COC(C)=O)C(OC(C)=O)C(OC(C)=O)C3OC(C)=O)c(=S)n(-c3ccc(OC)cc3)c2=O)cc1 (stereo not drawn) , no commentary.
OUT: > 100 µM

IN: Supply reported TGI belonging to this molecule: COc1cc(/C=C\c2cc(/C=C\c3ccc(O)c(OC)c3)n(C(=O)COc3ccc(Cl)cc3Cl)n2)ccc1O
OUT: 2.3 µM

IN: Quickly give me recorded TGI for CCc1n[nH]c(=S)n1/N=C/c1ccc(-c2ccc([N+](=O)[O-])cc2)o1
OUT: > 100 µM

IN: // fetch TGI given entry Cc1ccc(NN=NCCCCN=NNc2ccc(C)cc2)cc1
OUT: 2.1 µM

IN: Please look at this molecule and report its TGI: CC(=O)OCC1OC(n2c(C)c(C(C)=O)c(-c3ccc(Cl)cc3)c(C#N)c2=S)C(OC(C)=O)C(OC(C)=O)C1OC(C)=O (stereo not drawn)
OUT: > 100 µM

IN: Give me measured TGI, please, for this molecule: COCC1OC(OC2OCC3OC4(OCC(O)(C(C)OC)C5OCOC54)OC3C2OC)C(OC)C(O)C1OC1OC(C)C(OC)C(OC2OC(C)C3OC4(CC(O)C(OC5CC(OC6CC(C)([N+](=O)[O-])C(OC)C(C)O6)C(OC(=O)c6c(C)c(Cl)c(O)c(Cl)c6OC)C(C)O5)C(C)O4)OC3(C)C2O)C1O (stereo not drawn)
OUT: > 100 µM

IN: State, in one line, measured TGI of Cc1nc2ccccc2c(=O)n1NC(=O)c1ccc(N)cc1
OUT: > 100 µM

* * *

- Test system: SNB-19 CNS
- protocolDetails: NCI tumour cell line growth inhibition, 48 h
propertyLabel: TGI (µM)
Express your answer in µM, writing the number without its unit.

IN: Find the measured TGI of Cc1ccc2c(c1)C(=O)C(c1c(-c3[nH]c(=O)c4ccc(C)cc4c3O)c(O)c3ccccc3c1O)=NC2=O and report it.
OUT: 7.3

IN: Give the value of TGI reported for the following: COc1ccc(-c2cc(-c3ccccc3)nc(N)c2-c2ccc3ccccc3c2)cc1
OUT: 2.57

* * *

Please provide measured TGI for the entries that follow.
- Test system: MDA-N
- protocolDetails: NCI tumour cell line growth inhibition, 48 h
Numbers only; they are read as µM.

IN: Report TGI, nothing else, for this compound: COc1cc(/C=N/NC(=O)c2c(Cl)c(Cl)c(Cl)c(Cl)c2-c2nc3ccccc3[nH]2)ccc1O
OUT: 75.7

IN: Assign TGI to the following record: CC(=O)Oc1ccc2c3c1[C@H]1O[C@H]1c1cccc(c1-3)[C@@H]1O[C@H]21
OUT: 20.9

IN: Return TGI for the following compound: C=C1C(=O)O[C@@H]2C[C@@H]3[C@]4(CC[C@]5(C)[C@@H]([C@H](C)CC/C=C(\C)C=O)CC[C@@]35C)C[C@]4(CCC(=O)OC)[C@H]12
OUT: 3.42

* * *

- Test system: DMS 273 small cell lung
- protocolDetails: NCI tumour cell line growth inhibition, 48 h
propertyLabel: TGI

IN: Write down TGI measured for item CCc1n[nH]c(=S)n1/N=C/c1ccc(-c2ccc([N+](=O)[O-])cc2)o1
OUT: > 100 µM

IN: Give the reported value of TGI for this record: CC(C)[C@@H](C)CC[C@@H](C)C1CC=C2[C@@H]3CCC4C[C@@H](O[Si](C)(C)C(C)(C)C)CC[C@]4(C)C3CC[C@@]21C (some centres undefined)
OUT: > 100 µM

IN: Identify measured TGI corresponding to C[C@]12CC[C@H](OC3CCCCO3)CC1=CC[C@@H]1C2CC[C@]2(C)/C(=N/OCCC#N)CCC12 (some centres undefined)
OUT: > 100 µM

IN: Tell us which TGI value is on record for COc1cc2c(cc1O)[C@@]1(Cc3ccc(OC)c(OC)c3)CCC(=O)N1CC2
OUT: > 100 µM

* * *

- Test system: SK-MEL-28 melanoma
- protocolDetails: NCI tumour cell line growth inhibition, 48 h
propertyLabel: GI50

IN: Give the reported value of GI50 for this record: COc1cc(/C=C\c2cc(/C=C\c3ccc(O)c(OC)c3)n(C(=O)COc3ccc(Cl)cc3Cl)n2)ccc1O
OUT: 1.19 µM

IN: Give the reported value of GI50 for this record: C=C1C(=O)O[C@H]2[C@H]1CC/C(COC(=O)NCc1ccc(Cn3c(=O)sn(CCCC)c3=O)cc1)=C\CC[C@@]1(C)O[C@@H]21
OUT: 1.8 µM

IN: Identify GI50 associated with the compound Cn1ccnc1C(=O)/C=C/c1ccc(C(=O)Nc2ccc(F)cc2)cc1
OUT: 1.8 µM

IN: Specify measured GI50 for C[C@H](Nc1ccc2c(c1)OCCn1cc(N3C(=O)OC[C@H]3C(F)F)nc1-2)C(N)=O .
OUT: 7.3 µM

IN: Could you please provide reported GI50 for COc1ccc2cnc(N)c(C#Cc3cc(C(=O)Nc4ccc(CN5CCN(C)CC5)c(C(F)(F)F)c4)cnc3C)c2c1 ? Thanks!
OUT: 0.372 µM

IN: Respond only with GI50 recorded for N#C/C(=C\c1ccc2c(c1)OCO2)n1nnc2ccccc21
OUT: 1.24 µM

IN: Tell me its GI50 given Cc1cc(Cl)ccc1Nc1nc(C(F)(F)F)ccc1C(=O)N/N=C/c1cccc(O)c1 as the entry.
OUT: 3.65 µM

IN: Output GI50 of O=C1/C(=C/c2ccc(Cl)cc2Cl)CN(S(=O)(=O)c2ccccc2)C/C1=C\c1ccc(Cl)cc1Cl
OUT: 8.29 µM

IN: Please report GI50 for the following compound: Cc1ccc(C2CC(c3cccc(Nc4ccncc4)c3)=NN2c2cc(Cl)cc(Cl)c2)cc1 (stereo not given)
OUT: 1.77 µM

IN: Answer with the recorded GI50 of CC(=O)Oc1cn(-c2ccc(Cl)cc2)nc1C1=NN(C(C)=O)C(c2ccc(F)cc2F)O1 (stereo not given) only.
OUT: 50.2 µM

IN: Answer with the recorded GI50 for the compound listed here: N[C@@H]1CCCC[C@@H]1N.O=P([O-])([O-])CNCP(=O)([O-])[O-].[Pt+2]
OUT: > 100 µM

IN: For the compound Cc1ccc(Cl)cc1Nc1nc(C(F)(F)F)ccc1C(N)=O , report GI50.
OUT: 43.8 µM

IN: Entry COc1cccc(CNCCN2C(=O)c3ccc4c5c(ccc(c35)C2=O)C(=O)N(CCNCc2cccc(OC)c2)C4=O)c1 needs its GI50 filled in; supply it.
OUT: 2.22 µM

IN: Tell me its GI50 given O=S(=O)(Nc1cccc(Cl)c1)c1ccc(-c2cnc(C3CC3)o2)cc1 as the entry.
OUT: 10.2 µM

IN: Supply GI50 value. Item: CC[C@H](C)[C@H](NC(=O)C12CC(NC)(C1)C2)C(=O)N(C)[C@H](C[C@@H](OC(C)=O)c1nc(C(=O)N[C@@H](Cc2ccccc2)C[C@H](C)C(=O)OC)cs1)C(C)C
OUT: 2.13 µM

* * *

Assignment: determine reported GI50 for the given molecules.
- System: CAKI-1 renal
- protocolDetails: NCI tumour cell line growth inhibition, 48 h

IN: Report GI50, nothing else, for this molecule: CCOc1cc2ncc(C#N)c(Nc3ccc(F)c(Cl)c3)c2cc1NC(=O)CC1CCSS1 (stereo not given)
OUT: 979 nM

IN: Tell me its GI50 given COC(=O)c1ccc2[nH]c(O)c(C(=Nc3ccc(N(C)C(=O)CN4CCN(C)CC4)cc3)c3cccc(OC)c3)c2c1 as the entry.
OUT: 373 nM

IN: Provide GI50 value for the following molecule: Cn1ccnc1C(=O)/C=C/c1ccc(C(=O)Nc2ccc(F)cc2)cc1
OUT: 1070 nM

IN: Give GI50 for CCOC(=O)c1cnc2c(C)cc(C)cc2c1NCCCN(C)C
OUT: 3900 nM

IN: Specify reported GI50 for the molecule shown: O=S(=O)(Nc1cccc(Cl)c1)c1ccc(-c2cnc(C3CC3)o2)cc1
OUT: 232 nM

IN: Given the molecule COc1ccc(OC)c(N(CCN2C(=O)c3ccccc3C2=O)C(=O)CCl)c1 , write its reported GI50.
OUT: 482 nM

IN: Give GI50 for the following molecule: CCOC(=O)C(=Cc1ccc(-c2ccccc2)cc1)C(=O)OCC
OUT: 3240 nM

IN: Dear colleague, please send me the reported GI50 for Cc1ccc(Cl)cc1Nc1nc(C(F)(F)F)ccc1C(N)=O when you can.
OUT: 3500 nM

IN: Quickly give me recorded GI50 for Oc1cc2ccccc2cc1-c1n[nH]c(=S)n1CCc1ccccc1
OUT: 30900 nM

IN: Given C=C1CC[C@@H]2C(C)(C)[C@H](O)CC[C@@]2(C)[C@@H]1COc1ccc2ccc(=O)oc2c1 , respond with its GI50.
OUT: 23200 nM
